- Tested System: Dihydroorotate dehydrogenase (quinone), mitochondrial (Plasmodium falciparum (isolate 3D7)) (UniProt Q08210)
- Sequence (whole entry): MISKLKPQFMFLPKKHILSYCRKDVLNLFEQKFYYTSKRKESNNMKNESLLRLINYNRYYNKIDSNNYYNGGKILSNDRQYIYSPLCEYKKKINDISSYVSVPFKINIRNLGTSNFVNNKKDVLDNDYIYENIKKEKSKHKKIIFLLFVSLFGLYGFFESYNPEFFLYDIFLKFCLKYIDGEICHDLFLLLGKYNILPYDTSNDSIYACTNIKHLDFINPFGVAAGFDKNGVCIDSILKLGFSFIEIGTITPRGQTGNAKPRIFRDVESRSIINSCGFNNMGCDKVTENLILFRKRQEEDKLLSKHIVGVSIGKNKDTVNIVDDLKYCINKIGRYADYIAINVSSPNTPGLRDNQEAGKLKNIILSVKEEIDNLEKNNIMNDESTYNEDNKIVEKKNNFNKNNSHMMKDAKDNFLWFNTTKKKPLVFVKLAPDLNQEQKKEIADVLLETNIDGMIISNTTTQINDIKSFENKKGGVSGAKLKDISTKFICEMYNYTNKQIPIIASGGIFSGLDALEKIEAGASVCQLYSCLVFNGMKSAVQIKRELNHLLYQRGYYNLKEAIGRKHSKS
- Assay Protocol: Inhibition of Plasmodium falciparum DHODH assessed as residual activity at 100 uM measured over 60 secs by DCIP dye based colorimetric assay relative to control
- Assay Setup: time > 60.0 sec
Entries and their Activity values follow.
Measured Attribute: Activity (%)

> print(dat)
                                   structure  measured.attribute  comparison.sign  value.reported
 1  Cc1cc(N2CCN(c3ccnc4cc(Cl)ccc34)CC2)n2nc(C(F)(F)F)nc2n1            Activity                =             105
 2  Cc1cc(N2CCN(c3ccnc4cc(Cl)ccc34)CC2)n2nc(C)cc2n1            Activity                =             108
 3  Cc1cc(NCCCCNc2ccnc3cc(Cl)ccc23)n2nc(C)nc2n1            Activity                =              92
 4  Cc1cc(NCCCCCCCNc2ccnc3cc(Cl)ccc23)n2nc(C)nc2n1            Activity                =            78.8
 5  Cc1cc(Nc2ccc(S(F)(F)(F)(F)F)cc2)n2nc(C(C)(F)F)nc2n1            Activity                <              10
 6  Cc1cc(NCCCCCCCNc2ccnc3cc(Cl)ccc23)n2nc(C(F)(F)F)nc2n1            Activity                =            16.4
 7  Cc1cc(NCCCCCCCNc2ccnc3cc(Cl)ccc23)n2ncnc2n1            Activity                =            73.5
 8  Cc1cc(NCCCCNc2ccnc3cc(Cl)ccc23)n2nc(C)cc2n1            Activity                =            89.4
 9  Cc1cc(NCCCCNc2ccnc3cc(Cl)ccc23)n2nc(C(F)(F)F)nc2n1            Activity                =            80.8
10  Cc1cc(NCCCNc2ccnc3cc(Cl)ccc23)n2nc(C(F)(F)F)nc2n1            Activity                =            51.5
11  Cc1cc(NCCCCCCCNc2ccnc3cc(Cl)ccc23)n2nc(C)cc2n1            Activity                =            89.4
12  Cc1cc(NCCCNc2ccnc3cc(Cl)ccc23)n2nc(C)nc2n1            Activity                =              97
13  Cc1cc(N2CCN(c3ccnc4cc(Cl)ccc34)CC2)n2nc(C)nc2n1            Activity                =              93
